- TARGET: adenosine A1 receptor (Homo sapiens (Human), UniProt P30542)
- Sequence (P30542 whole entry): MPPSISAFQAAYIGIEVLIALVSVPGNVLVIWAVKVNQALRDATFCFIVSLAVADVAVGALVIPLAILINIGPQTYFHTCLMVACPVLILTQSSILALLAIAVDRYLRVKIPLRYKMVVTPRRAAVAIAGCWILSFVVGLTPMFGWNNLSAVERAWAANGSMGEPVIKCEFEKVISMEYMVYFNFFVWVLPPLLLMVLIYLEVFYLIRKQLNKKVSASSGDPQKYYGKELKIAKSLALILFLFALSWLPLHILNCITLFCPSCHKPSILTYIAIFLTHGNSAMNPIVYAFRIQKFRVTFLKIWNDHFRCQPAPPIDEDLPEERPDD
- RUN_DESCRIPTION: Adenosine receptor activity assay (Table 1), A1 cAMP
- Assay type: cell-based
pIC50: −log10 of the molar value.
READOUT_TYPE: pIC50

[[record]]
compound = "CNc1cc2nc(N[C@@H](C)c3cccnc3)nc(C(=O)N3CC(O)C3)c2s1 [Example Z240]"
target = "adenosine A1 receptor (Homo sapiens (Human), UniProt P30542)"
readout_type = "pIC50"
reported_value = "< 6.30"

[[record]]
compound = "CO[C@H]1CCN(C(=O)c2nc(N[C@@H](C)c3ccccn3)nc3cc(C)sc23)C1 [Example Z311]"
target = "adenosine A1 receptor (Homo sapiens (Human), UniProt P30542)"
readout_type = "pIC50"
reported_value = "< 6.30"

[[record]]
compound = "Cc1cc2nc(N[C@@H](C)c3cccnc3)nc(C(=O)N3CC(O)C3)c2s1 [Example Z299]"
target = "adenosine A1 receptor (Homo sapiens (Human), UniProt P30542)"
readout_type = "pIC50"
reported_value = "< 6.30"

[[record]]
compound = "Cc1cc2nc(N[C@@H](C)c3ccccn3)nc(C(=O)N3CCCC3)c2s1 [Example Z244]"
target = "adenosine A1 receptor (Homo sapiens (Human), UniProt P30542)"
readout_type = "pIC50"
reported_value = "7.00 to 7.30"


---

Quick reference: pIC50 of the listed items.
- TARGET: adenosine A3 receptor (Homo sapiens (Human))
- Sequence (P0DMS8 whole entry): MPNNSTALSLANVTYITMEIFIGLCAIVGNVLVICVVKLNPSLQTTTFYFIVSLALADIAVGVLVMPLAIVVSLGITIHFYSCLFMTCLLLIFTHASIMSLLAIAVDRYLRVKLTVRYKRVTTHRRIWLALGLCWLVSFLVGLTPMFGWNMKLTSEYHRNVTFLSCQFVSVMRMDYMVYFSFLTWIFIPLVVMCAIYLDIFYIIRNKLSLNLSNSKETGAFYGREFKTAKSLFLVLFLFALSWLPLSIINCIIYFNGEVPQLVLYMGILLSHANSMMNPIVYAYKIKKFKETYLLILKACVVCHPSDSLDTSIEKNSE
- RUN_DESCRIPTION: Adenosine receptor activity assay (Table 1), A3 cAMP
- Type: biochemical
- Method: Table 1. Compounds (e.g., Adenosine Receptor modulators) and activity assay results. The legend is as follows: A=<10 nM; B=10-50 nM; C=50-100 nM; D=100-500; and E=>500 nM. The ratio corresponds to the A2A activity to the A2B activity; or A2A/A2B.
pIC50: −log10 of the molar value.
READOUT_TYPE: pIC50

[[record]]
smiles_representation = "CC(=O)N[C@@H]1CCN(C(=O)c2nc(N[C@@H](C)c3cncc(F)c3)nc3cc(C)sc23)C1"
target = "adenosine A3 receptor (Homo sapiens (Human))"
reported_value = "< 6.30"

[[record]]
smiles_representation = "Cc1cc2nc(N[C@@H](C)c3cncc(F)c3)nc(C(=O)N3CC(CO)C3)c2s1"
target = "adenosine A3 receptor (Homo sapiens (Human))"
reported_value = "< 6.30"

[[record]]
smiles_representation = "Cc1cc2nc(N[C@@H](C)c3cncc(F)c3)nc(C(=O)N3CC(N4CCCC4)C3)c2s1"
target = "adenosine A3 receptor (Homo sapiens (Human))"
reported_value = "< 6.30"

[[record]]
smiles_representation = "C[C@H](Nc1nc(C(=O)N2CC(NC(=O)C(C)(C)C)C2)c2sccc2n1)c1cncc(F)c1"
target = "adenosine A3 receptor (Homo sapiens (Human))"
reported_value = "7.00 to 7.30"


---

- TARGET: adenosine A3 receptor (Homo sapiens (Human))
- RUN_DESCRIPTION: A3 cAMP IC50 assay (Table 1)
- Format: biochemical
Quick reference: IC50 of the listed items.
READOUT_TYPE: IC50

[[record]]
molecule = "C[C@H](Nc1nc(C(=O)N2CCC2)c2sccc2n1)c1ccccn1 [Example Z90]"
reported_value = "> 0.5 µM"

[[record]]
molecule = "O=C(c1nc(NCc2cncc(F)c2)nc2ccsc12)N1CC(F)(F)C1 [Example Z97]"
reported_value = "> 0.5 µM"

[[record]]
molecule = "CNc1cc2nc(N[C@@H](C)c3ccccn3)nc(C(=O)N3CC[C@@H](O)C3)c2s1 [Example Z176]"
reported_value = "0.05 to 0.1 µM"

[[record]]
molecule = "CNc1cc2nc(N[C@@H](C)c3cccnc3)nc(C(=O)N3CC[C@@H](O)C3)c2s1 [Example Z172]"
reported_value = "> 0.5 µM"

[[record]]
molecule = "COc1cccc(CNC(=O)c2nc(N[C@@H](C)c3cccnc3)nc3ccsc23)n1 [Example Z73]"
reported_value = "0.05 to 0.1 µM"

[[record]]
molecule = "COC1CN(C(=O)c2nc(NCc3cncc(F)c3)nc3ccsc23)C1 [Example Z115]"
reported_value = "> 0.5 µM"

[[record]]
molecule = "C[C@H](Nc1nc(C(=O)N2CCCC2)c2sccc2n1)c1cncc(F)c1 [Example Z134]"
reported_value = "> 0.5 µM"

[[record]]
molecule = "C[C@H](Nc1nc(C(=O)N2CC[C@@H](F)C2)c2sccc2n1)c1cccnc1 [Example Z8]"
reported_value = "> 0.5 µM"

